The origin of these recorded values is patent US9958451B2.

Here the recorded Longest wavelength emission is given for each entry.
assay: Fluorescence emission spectra, 15 μM in 90% aqueous, 10% DMSO; type: physicochemical; details: NaOH (pH 12), anion/phenoxide

>>> test_result("COC(=O)c1ccccc1-c1c2ccc(=O)cc-2oc2c1ccc1cc(O)ccc12 [Compound 20c]")
"~640 nm"
>>> test_result("COC(=O)c1ccccc1-c1c2ccc(=O)cc-2oc2c1ccc1cccc(O)c12 [Compound 15h]")
"760 nm"

Then this molecule:
Tell us which Longest wavelength emission value is on record for COC(=O)c1ccccc1-c1c2ccc(=[N+](C)C)cc-2oc2c1ccc1cccc(O)c12 [Compound 15d]
~780 nm
